Provide the recorded AUC for the entries that follow.
# test name: Pharmacokinetic study in rats after oral administration of TC extracts (UPLC-MS/MS of plasma)
# assay conditions: male, Sprague-Dawley, rat, plasma, po, 10 g/kg
Give bare numbers, in ng·h/mL.

Example entries and their recorded answers appear below.
O=C(O[C@@H]1O[C@@H]2COC(=O)c3cc(O)c(O)c(O)c3-c3c(cc(O)c(O)c3O)C(=O)O[C@H]([C@H]1O)[C@@H]2O)c1cc(O)c(O)c(O)c1: 16700
O=C(O)c1ccc(O)c(O)c1: 70.8
CCOC(=O)c1cc(O)c(O)c(O)c1 [Ethyl gallate, ethyl gallate]: 16.9
O=C(O)C[C@@H]1C(=O)O[C@H]2[C@@H]3OC(=O)c4cc(O)c(O)c(O)c4-c4c(cc(O)c(O)c4O)C(=O)OC[C@H]2O[C@@H](OC(=O)c2cc(O)c(O)c(O)c2)[C@@H]3OC(=O)c2cc(O)c(O)c3c2[C@H]1[C@H](O)C(=O)O3: 231000
O=C(O)C[C@@H]1C(=O)O[C@H]2[C@H](OC(=O)c3cc(O)c(O)c(O)c3)[C@@H](OC(=O)c3cc(O)c(O)c4c3[C@H]1[C@H](O)C(=O)O4)[C@H](OC(=O)c1cc(O)c(O)c(O)c1)O[C@@H]2COC(=O)c1cc(O)c(O)c(O)c1: 38200

Please turn your attention to the following entry.
Which AUC value belongs to O=c1oc2c(O)c(O)cc3c(=O)oc4c(O)c(O)cc1c4c23 ?
6810
